- target: Progesterone receptor (Oryctolagus cuniculus, UniProt P06186)
- Sequence (P06186 whole entry): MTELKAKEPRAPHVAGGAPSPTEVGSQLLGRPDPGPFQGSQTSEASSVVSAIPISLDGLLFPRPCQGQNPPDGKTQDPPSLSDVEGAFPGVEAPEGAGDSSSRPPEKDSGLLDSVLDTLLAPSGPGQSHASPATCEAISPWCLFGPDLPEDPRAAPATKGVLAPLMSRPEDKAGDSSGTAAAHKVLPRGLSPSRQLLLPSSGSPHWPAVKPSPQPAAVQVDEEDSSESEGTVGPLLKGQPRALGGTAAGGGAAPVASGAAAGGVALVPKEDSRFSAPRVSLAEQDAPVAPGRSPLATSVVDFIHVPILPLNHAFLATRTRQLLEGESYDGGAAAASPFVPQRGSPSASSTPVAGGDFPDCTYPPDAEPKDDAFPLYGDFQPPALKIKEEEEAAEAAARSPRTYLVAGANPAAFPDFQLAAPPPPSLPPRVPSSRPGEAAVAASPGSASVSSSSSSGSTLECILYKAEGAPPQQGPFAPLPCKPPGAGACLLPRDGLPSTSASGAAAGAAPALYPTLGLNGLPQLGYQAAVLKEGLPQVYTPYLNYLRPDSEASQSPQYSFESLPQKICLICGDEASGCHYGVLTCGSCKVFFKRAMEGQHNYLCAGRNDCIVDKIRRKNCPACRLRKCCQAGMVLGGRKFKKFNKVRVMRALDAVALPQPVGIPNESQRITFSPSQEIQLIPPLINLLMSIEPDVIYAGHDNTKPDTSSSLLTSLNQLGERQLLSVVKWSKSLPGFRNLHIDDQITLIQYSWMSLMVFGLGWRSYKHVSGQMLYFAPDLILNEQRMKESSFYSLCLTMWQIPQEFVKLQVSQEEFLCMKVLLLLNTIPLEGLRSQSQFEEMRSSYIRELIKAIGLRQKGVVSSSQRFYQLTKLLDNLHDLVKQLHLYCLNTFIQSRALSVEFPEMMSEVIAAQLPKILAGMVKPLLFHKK
Listing of entries alongside the reported pKi.
Please treat pKi as minus the base-10 logarithm of the molar concentration.

// known answers, use as guide
{"compound": "CC12CCC3C4CCC(=O)C=C4CCC3C1C[C@@H](I)C2O (some centres undefined)", "target": "Progesterone receptor (Oryctolagus cuniculus, UniProt P06186)", "pKi": 7.40}
{"compound": "CC12CCC3C4CCC(=O)C=C4CCC3C1CCC2(O)/C=C\\I (centres undefined)", "target": "Progesterone receptor (Oryctolagus cuniculus, UniProt P06186)", "pKi": 8.37}

So what does the record say about pKi for C=C(I)C1(O)CCC2C3CCC4=CC(=O)CCC4C3CCC21C (centres undefined) ?
7.10

So what does the record say about pKi for CC12CCC3C4CCC(=O)C=C4CCC3C1CCC2(O)/C=C/I (centres undefined) ?
8.74
